Molecular target: ST1710 (Sulfurisphaera tokodaii, UniProt Q96ZY1)
Sequence (Q96ZY1 1-146): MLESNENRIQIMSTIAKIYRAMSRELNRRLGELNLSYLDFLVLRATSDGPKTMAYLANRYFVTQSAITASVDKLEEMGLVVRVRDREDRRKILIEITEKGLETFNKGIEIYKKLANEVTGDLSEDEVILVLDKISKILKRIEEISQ
pKd: −log10 of the molar value.
Metric Name: pKd

                              compound  observed_result
0  O=C(O)c1ccccc1O [sodium salicylate]             1.70
